Test System: mHTT aggregates in HOM zQ175 HD mouse brain sections
Procedure Summary: In vitro autoradiography (ARG) saturation binding, HOM zQ175 brain sections
Condition: HOM zQ175 12 months, cortex
Experimental Readout: pKd
Scale: negative log10 of molar concentration, which is what pKd denotes.

Reported pKd of COc1ccc(COc2ccc3oc(-c4ccc(=O)n(C)n4)nc3c2)nc1 [CHDI-180] : 8.96

====

Test System: Q46 aggregates
Procedure Summary: RBA saturation binding, Q46 aggregates
Condition: tritiated compound; mean ± SD
Method: For N-terminal tag cleavage, proteins at 30 µM in 2 mL reaction tubes were incubated with 150 µg/mL thrombin (Sigma, T4648) in 50 mM Tris (pH 8.0), 150 mM NaCl, 2 mM CaCl2 for 16 h at 37 °C. For radioligand binding assays (RBA) (see below) and radiometric filter trap assays (RAFTA) (see below), aggregates were separated by centrifugation (5 min 16,000×g) and resuspended with assay buffer (50 mM Tris pH 8.0, 150 mM NaCl) (see Supplementary Fig. S2B). […]
Experimental Readout: pKd
The quantity pKd is defined as the negative base-10 logarithm of the molar concentration.

For reference, reported pKd for COc1ccc(COc2ccc3oc(-c4ccc(=O)n(C)n4)nc3c2)nc1 [CHDI-180] stands at 8.11

====

Test System: Exon1-Q46 aggregates (Homo sapiens, UniProt P42858, INS38QQQQQQQQQQQQQQQQQQQQQQQQQ)
Construct: MBP-HTT(1-89)Q46-His(6x); MBP (N, cleaved yes); made in house; host or cells: E. coli BL21 (DE3)
Sequence (P42858 with tags, fused parts or gaps with the stated changes): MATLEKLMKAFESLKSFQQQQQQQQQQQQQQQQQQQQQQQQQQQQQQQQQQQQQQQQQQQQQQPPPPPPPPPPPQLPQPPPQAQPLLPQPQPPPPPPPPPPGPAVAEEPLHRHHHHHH
Procedure Summary: RBA saturation binding, recombinant Exon1-Q46 aggregates
Condition: tritiated compound; mean ± SD; read-out: Kd Exon1-Q46
Experimental Readout: pKd
pKd (log units): -log10 of the concentration in mol/L.

Lab note: measured pKd of COc1ccc(COc2ccc3oc(-c4ccc(=O)n(C)n4)nc3c2)nc1 was 8.59

====

Test System: Exon1-Q46 aggregates (Homo sapiens, UniProt P42858, INS38QQQQQQQQQQQQQQQQQQQQQQQQQ)
Construct: MBP-HTT(1-89)Q46-His(6x); MBP (N, cleaved yes); made in house; host or cells: E. coli BL21 (DE3)
Procedure Summary: RBA saturation binding, recombinant Exon1-Q46 aggregates
Condition: representative single experiment (Fig. 2A); read-out: Kd
Experimental Readout: pKd
Note on units: pKd is unitless, being -log10 of a concentration expressed in mol/L.

pKd for COc1ccc(COc2ccc3oc(-c4ccc(=O)n(C)n4)nc3c2)nc1 is 8.49

====

Test System: Exon1-Q46 aggregates (Homo sapiens, UniProt P42858, INS38QQQQQQQQQQQQQQQQQQQQQQQQQ)
Construct: MBP-HTT(1-89)Q46-His(6x); MBP (N, cleaved yes); made in house; host or cells: E. coli BL21 (DE3)
Procedure Summary: RBA competition binding against tritiated 3, Exon1-Q46 aggregates
Condition: against tritiated 3; representative single experiment (Fig. 2B); read-out: IC50
Experimental Readout: IC50 (nM)
Give the quantity in nM, number only.

The compound COc1ccc(COc2ccc3oc(-c4ccc(=O)n(C)n4)nc3c2)nc1 [CHDI-180] showed IC50 equal to 1.4

====

Test System: zQ175 brain homogenates
Procedure Summary: Whole brain homogenate RBA saturation binding, HOM zQ175
Condition: HOM zQ175 12 months whole brain homogenate
Experimental Readout: pKd
Please keep in mind that pKd is minus log10 of the molar concentration; only the number is needed.

// sample COc1ccc(COc2ccc3oc(-c4ccc(=O)n(C)n4)nc3c2)nc1 , its pKd was 8.62
